Target: UniProtKB Q8NEB9
Sequence (Q8NEB9 whole entry, species assumed): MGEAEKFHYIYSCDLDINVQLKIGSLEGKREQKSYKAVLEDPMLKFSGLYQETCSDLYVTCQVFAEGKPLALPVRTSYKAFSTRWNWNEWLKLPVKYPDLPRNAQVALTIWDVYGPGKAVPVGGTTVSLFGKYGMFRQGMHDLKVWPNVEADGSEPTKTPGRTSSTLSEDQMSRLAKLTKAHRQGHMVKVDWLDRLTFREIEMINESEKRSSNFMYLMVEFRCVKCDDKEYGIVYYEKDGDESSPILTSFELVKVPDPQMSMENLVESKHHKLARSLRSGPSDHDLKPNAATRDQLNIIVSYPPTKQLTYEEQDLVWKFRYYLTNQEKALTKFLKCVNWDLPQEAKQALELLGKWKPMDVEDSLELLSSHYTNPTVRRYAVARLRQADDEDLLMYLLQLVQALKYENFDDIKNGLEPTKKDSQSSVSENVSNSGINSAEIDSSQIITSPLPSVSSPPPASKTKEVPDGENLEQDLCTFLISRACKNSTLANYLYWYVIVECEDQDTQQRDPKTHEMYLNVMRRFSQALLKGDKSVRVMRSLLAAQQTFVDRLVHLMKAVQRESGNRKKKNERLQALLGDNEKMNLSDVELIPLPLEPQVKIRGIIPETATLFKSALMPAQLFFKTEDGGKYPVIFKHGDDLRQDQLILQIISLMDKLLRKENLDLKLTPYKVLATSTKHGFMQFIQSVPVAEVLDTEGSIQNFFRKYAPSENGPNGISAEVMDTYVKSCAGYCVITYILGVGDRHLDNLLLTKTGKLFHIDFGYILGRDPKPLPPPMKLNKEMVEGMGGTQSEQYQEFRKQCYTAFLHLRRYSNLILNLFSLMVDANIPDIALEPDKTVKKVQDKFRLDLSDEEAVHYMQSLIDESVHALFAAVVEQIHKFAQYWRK
Assay: Kinase Glo Luminescent Kinase Assay (Kglo), assay C
Type: biochemical
Conditions: read-out: Assay C VPS34 IC50
Here, each record is paired with measured IC50 data.

The examples below pair each entry with its known result.
>  <smiles>
Cc1ccc(S(=O)(=O)N2CCC(F)(F)C2)cc1-c1cnc(N)c(-n2cncn2)n1

>  <assay_target>
UniProtKB Q8NEB9

>  <test_result>
> 10 µM

$$$$
>  <smiles>
Cc1ccc(-c2nc(-c3cc(S(=O)(=O)NCCC(C)(C)O)ccc3C)cnc2N)s1

>  <assay_target>
UniProtKB Q8NEB9

>  <test_result>
> 9.1 µM

$$$$
>  <smiles>
Cc1ccc(S(=O)(=O)NCCC2(O)CCCCC2)cc1-c1cnc(N)c(-n2cncn2)n1

>  <assay_target>
UniProtKB Q8NEB9

>  <test_result>
> 10 µM

$$$$
>  <smiles>
Cc1ccc(S(=O)(=O)NCC(C)(C)O)cc1-c1cnc(N)c(-n2cnc(C3CC3)n2)n1

>  <assay_target>
UniProtKB Q8NEB9

>  <test_result>
> 10 µM

$$$$
>  <smiles>
Cc1ccc(S(=O)(=O)NCCC(C)(C)O)cc1-c1cnc(N)c(-c2ccnc(F)c2)n1

>  <assay_target>
UniProtKB Q8NEB9

>  <test_result>
> 9.1 µM

$$$$
>  <smiles>
Cc1ncc(-c2nc(-c3cc(S(=O)(=O)NC4CCC(F)(F)CC4)ccc3C)cnc2N)s1

>  <assay_target>
UniProtKB Q8NEB9

>  <test_result>
0.64 µM

$$$$
>  <smiles>
Cc1nc(C)c(-c2nc(-c3cc(S(=O)(=O)NCC(C)(C)O)ccc3C)cnc2N)s1

>  <assay_target>
UniProtKB Q8NEB9

>  <test_result>
> 10 µM

$$$$

With those in mind, consider the next compound.
Inquiry: Notebook entry, UniProtKB Q8NEB9 assay: IC50 of `Cc1ccc(S(=O)(=O)NCCC2(O)CCCC2)cc1-c1cnc(N)c(-n2cncn2)n1` = ?
Reply text: > 10 µM

====

Biological target: PI 3-kinase delta (Homo sapiens)
Sequence (O00329 whole entry): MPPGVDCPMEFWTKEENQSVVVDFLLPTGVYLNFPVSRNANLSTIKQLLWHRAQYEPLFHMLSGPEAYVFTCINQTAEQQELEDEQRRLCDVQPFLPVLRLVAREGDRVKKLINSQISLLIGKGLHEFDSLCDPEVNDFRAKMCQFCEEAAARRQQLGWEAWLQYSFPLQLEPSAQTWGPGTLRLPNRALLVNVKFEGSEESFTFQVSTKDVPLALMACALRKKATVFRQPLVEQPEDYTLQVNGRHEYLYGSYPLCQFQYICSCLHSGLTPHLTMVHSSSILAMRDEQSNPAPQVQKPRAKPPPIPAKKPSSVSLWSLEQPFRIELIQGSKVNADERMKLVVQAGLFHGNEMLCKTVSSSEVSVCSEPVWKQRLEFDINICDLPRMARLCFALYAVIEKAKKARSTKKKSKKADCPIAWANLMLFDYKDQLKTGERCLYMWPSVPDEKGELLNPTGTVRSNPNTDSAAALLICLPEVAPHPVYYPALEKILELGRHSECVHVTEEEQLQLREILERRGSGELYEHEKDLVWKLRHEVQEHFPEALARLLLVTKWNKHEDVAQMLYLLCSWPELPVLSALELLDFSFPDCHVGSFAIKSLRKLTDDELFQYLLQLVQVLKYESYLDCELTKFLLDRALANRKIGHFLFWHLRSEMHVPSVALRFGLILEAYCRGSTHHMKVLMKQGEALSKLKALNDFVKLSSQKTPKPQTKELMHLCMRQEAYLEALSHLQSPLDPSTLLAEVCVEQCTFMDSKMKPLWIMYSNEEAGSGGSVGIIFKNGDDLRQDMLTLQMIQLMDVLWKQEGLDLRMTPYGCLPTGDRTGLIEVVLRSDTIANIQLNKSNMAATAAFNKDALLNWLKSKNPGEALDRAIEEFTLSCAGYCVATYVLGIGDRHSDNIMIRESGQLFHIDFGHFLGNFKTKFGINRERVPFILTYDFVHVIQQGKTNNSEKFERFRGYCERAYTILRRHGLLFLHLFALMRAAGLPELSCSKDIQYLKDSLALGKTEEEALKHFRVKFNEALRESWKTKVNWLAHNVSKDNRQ
Sequence (P27986 461-568 partner): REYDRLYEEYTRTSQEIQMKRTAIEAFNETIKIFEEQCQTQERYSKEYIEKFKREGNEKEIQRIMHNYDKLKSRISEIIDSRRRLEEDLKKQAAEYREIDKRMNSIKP
Experiment: TR-FRET Adapta assay, assay F
Settings: read-out: Assay F PI3Kδ IC50
pIC50 values, listed per item
Conceptually, pIC50 converts a concentration in mol/L into minus its log10.

Below are worked cases with known answers.
>  <molecule>
Cc1ccc(S(=O)(=O)NCCC(C)(C)O)cc1-c1cnc(N)c(-c2c[nH]nc2C)n1

>  <assay_target>
PI 3-kinase delta (Homo sapiens)

>  <pIC50>
6.28

$$$$
>  <molecule>
Cc1ccc(S(=O)(=O)NCCF)cc1-c1cnc(N)c(-n2cncn2)n1

>  <assay_target>
PI 3-kinase delta (Homo sapiens)

>  <pIC50>
5.46

$$$$
>  <molecule>
Cc1ccc(S(=O)(=O)NCC(F)F)cc1-c1cnc(N)c(-n2cncn2)n1

>  <assay_target>
PI 3-kinase delta (Homo sapiens)

>  <pIC50>
5.54

$$$$
>  <molecule>
Cc1ccc(S(=O)(=O)N[C@H]2CC[C@@H](O)CC2)cc1-c1cnc(N)c(-c2cnn(C)c2)n1

>  <assay_target>
PI 3-kinase delta (Homo sapiens)

>  <pIC50>
6.62

$$$$
>  <molecule>
Cc1ncc(-c2nc(-c3cc(S(=O)(=O)NCC(C)(C)O)ccc3C)cnc2N)o1

>  <assay_target>
PI 3-kinase delta (Homo sapiens)

>  <pIC50>
6.00

$$$$
>  <molecule>
Cc1cc(-c2nc(-c3cc(S(=O)(=O)NCC(C)(C)N4CCOCC4)ccc3C)cnc2N)ccn1

>  <assay_target>
PI 3-kinase delta (Homo sapiens)

>  <pIC50>
5.92

$$$$
>  <molecule>
Cc1ccc(S(=O)(=O)N[C@H]2C[C@@H](O)C2)cc1-c1cnc(N)c(-n2cncn2)n1 [Example 71b]

>  <assay_target>
PI 3-kinase delta (Homo sapiens)

>  <pIC50>
5.89

$$$$
>  <molecule>
Cc1ncc(-c2nc(-c3cc(S(=O)(=O)NCC4COC4)ccc3C)cnc2N)s1

>  <assay_target>
PI 3-kinase delta (Homo sapiens)

>  <pIC50>
7.10

$$$$
>  <molecule>
Cc1ccc(S(=O)(=O)NCCC(C)(C)O)cc1-c1cnc(N)c(-c2cncnc2)n1

>  <assay_target>
PI 3-kinase delta (Homo sapiens)

>  <pIC50>
5.68

$$$$
>  <molecule>
Cc1ncc(-c2nc(-c3cc(S(=O)(=O)N[C@H]4CC[C@@H](O)CC4)ccc3C)cnc2N)s1

>  <assay_target>
PI 3-kinase delta (Homo sapiens)

>  <pIC50>
7.52

$$$$

Inquiry: Give pIC50 (PI 3-kinase delta (Homo sapiens)) of the following molecule: `Cc1cc(-c2nc(-c3cc(S(=O)(=O)NC[C@H]4CCCO4)ccc3C)cnc2N)ccn1`
Reply text: 6.04

Inquiry: Given the entry `Cc1ccc(S(=O)(=O)NC[C@H]2CCOC2)cc1-c1cnc(N)c(-n2cncn2)n1` , what pIC50 was observed with PI 3-kinase delta (Homo sapiens)?
Reply text: 6.10

Inquiry: Observed pIC50 on PI 3-kinase delta (Homo sapiens) for `Cc1ccc(S(=O)(=O)NCCC(C)(C)O)cc1-c1cnc(N)c(-c2cnn(C)n2)n1` , please.
Reply text: 6.92

====

Target: PI 4-kinase beta (Homo sapiens)
Sequence (Q9UBF8 whole entry): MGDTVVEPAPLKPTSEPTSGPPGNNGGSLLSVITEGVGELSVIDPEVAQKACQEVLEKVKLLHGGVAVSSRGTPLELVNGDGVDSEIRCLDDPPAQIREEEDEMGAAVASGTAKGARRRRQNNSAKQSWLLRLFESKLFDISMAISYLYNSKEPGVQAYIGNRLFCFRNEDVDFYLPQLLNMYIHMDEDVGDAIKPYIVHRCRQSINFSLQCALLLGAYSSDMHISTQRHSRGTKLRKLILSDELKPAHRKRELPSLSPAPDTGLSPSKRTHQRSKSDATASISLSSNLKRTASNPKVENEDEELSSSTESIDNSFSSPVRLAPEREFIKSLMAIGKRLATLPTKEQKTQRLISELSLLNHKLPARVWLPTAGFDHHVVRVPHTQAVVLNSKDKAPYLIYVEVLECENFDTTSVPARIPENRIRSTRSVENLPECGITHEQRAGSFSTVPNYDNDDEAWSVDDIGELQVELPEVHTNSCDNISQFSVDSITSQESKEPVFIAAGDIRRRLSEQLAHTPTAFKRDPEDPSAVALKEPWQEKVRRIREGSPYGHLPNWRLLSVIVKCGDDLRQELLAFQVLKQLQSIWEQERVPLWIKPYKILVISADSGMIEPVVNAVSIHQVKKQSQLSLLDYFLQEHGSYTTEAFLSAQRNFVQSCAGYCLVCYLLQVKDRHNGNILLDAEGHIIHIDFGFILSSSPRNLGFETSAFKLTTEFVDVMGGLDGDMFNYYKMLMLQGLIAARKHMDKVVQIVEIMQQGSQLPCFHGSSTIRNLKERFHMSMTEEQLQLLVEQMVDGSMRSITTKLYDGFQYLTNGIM
Experiment: Kinase Glo Luminescent Kinase Assay (Kglo), assay D
Format: biochemical
Conditions: read-out: Assay D PI4Kβ IC50
// values below are reported IC50
Give your result in µM as a bare value.

# example entries with known answers
>  <compound>
Cc1ccc(S(=O)(=O)NC[C@](C)(O)C(F)(F)F)cc1-c1cnc(N)c(-n2cncn2)n1 [Example 127.23]

>  <assay_target>
PI 4-kinase beta (Homo sapiens)

>  <IC50, µM>
2.9

$$$$
>  <compound>
Cc1ccc(S(=O)(=O)N[C@H]2CC[C@H](O)CC2)cc1-c1cnc(N)c(-n2cncn2)n1 [Example 15]

>  <assay_target>
PI 4-kinase beta (Homo sapiens)

>  <IC50, µM>
5.68

$$$$
>  <compound>
Cc1ccc(S(=O)(=O)NCCC(C)(O)C(F)(F)F)cc1-c1cnc(N)c(-n2cncn2)n1 (stereo not shown) [Example 127.24]

>  <assay_target>
PI 4-kinase beta (Homo sapiens)

>  <IC50, µM>
1.8

$$$$
>  <compound>
Cc1ccc(S(=O)(=O)NOC(C)(C)C)cc1-c1cnc(N)c(-n2cncn2)n1 [Example 112.1]

>  <assay_target>
PI 4-kinase beta (Homo sapiens)

>  <IC50, µM>
1.8

$$$$

Attention now shifts to the item below.
Inquiry: Given the entry Cc1cc(-c2nc(-c3cc(S(=O)(=O)NCCC(C)(C)O)ccc3C)cnc2N)ccn1 [Example 119.28] , report its measured IC50.
Reply text: 4.41

====

System: IL-8-induced neutrophil shape change in human whole blood
Experiment: Whole blood neutrophil shape change assay (L)
Type: cell-based
Details: Homo sapiens, Neutrophil, IL-8, human whole blood, read-out: Assay L WBSC IC50
Consider the following compounds and their measured pIC50 readings.
The read-out pIC50 is expressed as -log10 of concentration in moles per litre.

>  <compound>
Cc1ccc(S(=O)(=O)NCCC(C)(C)O)cc1-c1cnc(N)c(-c2nc(C3CC3)no2)n1 [Example 143]

>  <pIC50>
5.77

$$$$
>  <compound>
Cc1cc(-c2nc(-c3cc(S(=O)(=O)NCC4(O)COC4)ccc3C)cnc2N)ccn1 [Example 129.32]

>  <pIC50>
5.70

$$$$
>  <compound>
Cc1ccc(S(=O)(=O)NCCC(C)(C)O)cc1-c1cnc(N)c(-c2ccnn2C)n1 [Example 77]

>  <pIC50>
6.06

$$$$

Inquiry: Can you look up the measured pIC50 of Cc1cc(-c2nc(-c3cc(S(=O)(=O)NCC4(O)CCC4)ccc3C)cnc2N)ccn1 [Example 129.5] for me?
Reply text: 5.93

Inquiry: Name the recorded pIC50 for Cc1ccc(S(=O)(=O)NCCC(C)(C)O)cc1-c1cnc(N)c(-n2cccn2)n1 [Example 62] .
Reply text: 5.10

====

IC50 overview
Target: PI 3-kinase alpha (Homo sapiens)
Sequence (P42336 whole entry): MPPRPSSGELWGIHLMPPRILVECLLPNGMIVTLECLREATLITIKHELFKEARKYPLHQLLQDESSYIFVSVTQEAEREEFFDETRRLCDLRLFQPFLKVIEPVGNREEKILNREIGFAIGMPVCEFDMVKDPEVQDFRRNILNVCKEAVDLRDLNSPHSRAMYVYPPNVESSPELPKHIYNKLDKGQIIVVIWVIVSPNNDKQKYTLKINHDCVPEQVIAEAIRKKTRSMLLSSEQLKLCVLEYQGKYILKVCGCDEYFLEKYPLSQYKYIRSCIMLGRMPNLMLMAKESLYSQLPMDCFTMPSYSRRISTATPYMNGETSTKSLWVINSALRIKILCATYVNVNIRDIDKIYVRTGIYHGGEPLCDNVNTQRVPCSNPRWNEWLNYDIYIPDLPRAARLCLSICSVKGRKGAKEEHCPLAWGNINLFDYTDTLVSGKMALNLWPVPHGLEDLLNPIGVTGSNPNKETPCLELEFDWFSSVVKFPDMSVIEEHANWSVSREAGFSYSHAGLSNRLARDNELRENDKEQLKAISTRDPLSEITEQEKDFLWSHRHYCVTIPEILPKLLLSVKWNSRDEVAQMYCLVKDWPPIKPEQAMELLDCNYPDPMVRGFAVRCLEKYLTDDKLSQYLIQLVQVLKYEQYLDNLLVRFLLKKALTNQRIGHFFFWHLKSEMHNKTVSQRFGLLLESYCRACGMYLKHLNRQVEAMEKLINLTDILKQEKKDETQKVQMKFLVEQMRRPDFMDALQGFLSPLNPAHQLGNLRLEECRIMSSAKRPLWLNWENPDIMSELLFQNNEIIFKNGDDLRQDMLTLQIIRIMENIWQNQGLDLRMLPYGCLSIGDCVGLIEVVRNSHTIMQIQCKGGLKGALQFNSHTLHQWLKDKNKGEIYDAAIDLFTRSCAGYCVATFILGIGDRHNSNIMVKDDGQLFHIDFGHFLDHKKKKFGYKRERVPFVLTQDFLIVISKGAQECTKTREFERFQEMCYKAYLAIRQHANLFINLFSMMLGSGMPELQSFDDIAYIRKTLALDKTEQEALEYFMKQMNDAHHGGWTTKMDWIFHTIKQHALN
Test: Kinase Glo Luminescent Kinase Assay (Kglo), assay A
Assay type: biochemical
Settings: read-out: Assay A PI3Kα IC50
Where a name gives a salt, the structure may show the parent alone.
Report the value in nM with no unit label.

Before answering, review these 5 worked examples.
>  <molecule>
Cc1ccc(S(=O)(=O)NCC(C)(C)CO)cc1-c1cnc(N)c(-c2cc(C3CC3)no2)n1

>  <assay_target>
PI 3-kinase alpha (Homo sapiens)

>  <measured_quantity>
IC50

>  <units_text>
nM

>  <test_result>
740

$$$$
>  <molecule>
Cc1ncc(-c2nc(-c3cc(S(=O)(=O)NC[C@H]4C[C@H](O)C4)ccc3C)cnc2N)s1 [Example 20b]

>  <assay_target>
PI 3-kinase alpha (Homo sapiens)

>  <measured_quantity>
IC50

>  <units_text>
nM

>  <test_result>
50

$$$$
>  <molecule>
Cc1ccc(S(=O)(=O)NCC2CCCCO2)cc1-c1cnc(N)c(-n2cncn2)n1 (centres unmarked)

>  <assay_target>
PI 3-kinase alpha (Homo sapiens)

>  <measured_quantity>
IC50

>  <units_text>
nM

>  <test_result>
890

$$$$
>  <molecule>
Cc1ccc(S(=O)(=O)NC(C)C(C)C)cc1-c1cnc(N)c(-n2cncn2)n1 (centres unmarked)

>  <assay_target>
PI 3-kinase alpha (Homo sapiens)

>  <measured_quantity>
IC50

>  <units_text>
nM

>  <test_result>
730

$$$$
>  <molecule>
Cc1cc(-c2nc(-c3cc(S(=O)(=O)NC[C@@H](C)O)ccc3C)cnc2N)ccn1 [Example 129, trifluoroacetic acid salt]

>  <assay_target>
PI 3-kinase alpha (Homo sapiens)

>  <measured_quantity>
IC50

>  <units_text>
nM

>  <test_result>
130

$$$$

Inquiry: Which IC50 reading was recorded for the molecule `Cc1ccc(S(=O)(=O)NCCC(C)(C)O)cc1-c1cnc(N)c(-c2ccc(OC3CCOCC3)nc2)n1` ?
Reply text: 1090

Inquiry: What value of IC50 has been recorded for this entry: `Cc1ccc(S(=O)(=O)NCC(F)F)cc1-c1cnc(N)c(-n2cncn2)n1`
Reply text: 700

Inquiry: Record request: IC50 value, item `Cc1ccc(S(=O)(=O)NCC(N)=O)cc1-c1cnc(N)c(-n2cncn2)n1`
Reply text: 1020
